# System: MV4-11 cells
# test.name: Cell viability assay (CCK-8) in MV4-11 cells
# Type: cell-based
# test.conditions: Homo sapiens, MV4-11, 72 h, CCK-8, normalized to vehicle
reported.metric: EC50 (µM)
Response body: numeric value in µM, unit text excluded.

Ask: Which measured EC50 value corresponds to CC1(C)CCN(Cc2cc(F)c(N3CC(=O)NC4(CCN(c5cc(NCCCCCCCCCC(=O)N6CCN(c7ccc8c(c7)CN(C7CCC(=O)NC7=O)C8=O)CC6)ncn5)CC4)C3)cc2F)CC1 (stereo not shown) [Compound 4j] ?
Reply: 2.41

----------
# target.entity: METTL3 (Homo sapiens, UniProt Q86U44)
# Sequence (Q86U44 2-580 limits assumed): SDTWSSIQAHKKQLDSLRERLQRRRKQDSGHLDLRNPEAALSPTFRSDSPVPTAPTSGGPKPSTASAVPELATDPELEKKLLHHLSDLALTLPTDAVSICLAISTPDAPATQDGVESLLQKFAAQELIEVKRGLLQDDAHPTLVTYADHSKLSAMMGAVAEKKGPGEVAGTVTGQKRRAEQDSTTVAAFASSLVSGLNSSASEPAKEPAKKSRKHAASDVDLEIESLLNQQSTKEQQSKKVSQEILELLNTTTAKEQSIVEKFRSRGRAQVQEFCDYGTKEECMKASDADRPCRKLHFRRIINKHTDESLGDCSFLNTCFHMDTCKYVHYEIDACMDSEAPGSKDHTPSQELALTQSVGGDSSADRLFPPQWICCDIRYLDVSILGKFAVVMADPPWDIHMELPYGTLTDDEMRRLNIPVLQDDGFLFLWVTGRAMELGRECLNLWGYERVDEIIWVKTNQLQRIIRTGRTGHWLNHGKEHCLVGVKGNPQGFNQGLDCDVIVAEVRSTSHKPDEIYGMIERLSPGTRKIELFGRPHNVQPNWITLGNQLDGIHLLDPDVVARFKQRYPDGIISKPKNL
# Sequence (Q9HCE5 whole entry partner): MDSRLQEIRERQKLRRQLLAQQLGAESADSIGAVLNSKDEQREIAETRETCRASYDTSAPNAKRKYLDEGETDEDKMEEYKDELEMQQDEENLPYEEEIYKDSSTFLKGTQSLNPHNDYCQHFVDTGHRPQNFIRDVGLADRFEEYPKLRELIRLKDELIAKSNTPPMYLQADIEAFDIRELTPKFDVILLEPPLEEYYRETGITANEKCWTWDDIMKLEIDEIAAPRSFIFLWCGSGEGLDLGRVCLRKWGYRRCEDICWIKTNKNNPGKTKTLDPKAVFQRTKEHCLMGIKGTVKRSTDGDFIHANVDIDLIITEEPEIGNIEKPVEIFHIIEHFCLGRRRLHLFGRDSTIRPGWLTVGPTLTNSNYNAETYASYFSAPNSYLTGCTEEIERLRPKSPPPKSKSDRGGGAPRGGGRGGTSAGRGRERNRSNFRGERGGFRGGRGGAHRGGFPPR
# test.name: Immunoblotting (Western blot) degradation of METTL3 in MV4-11 cells
# Type: cell-based
# Parameters: Following treatment, total cellular proteins were extracted using RIPA buffer; endogenous in cells; host or cells: MV4-11 (MV4.11) human AML cells, ATCC
# test.conditions: MV4-11 cells, 1.0 µM, 24 h, immunoblotting
reported.metric: % degradation in MV4-11 cells, 1.0 µM, METTL3 (%)
Write it as a number; the unit % goes unstated.

Ask: # lookup: % degradation in MV4-11 cells, 1.0 µM, METTL3 of CNc1cc(N2CCC3(CC2)CN(c2cc(F)c(CN4CCC(C)(C(=O)NCCCCCCNc5cccc6c5C(=O)N(C5CCC(=O)NC5=O)C6=O)CC4)cc2F)CC(=O)N3)ncn1 (stereo not shown)
Reply: 56

Ask: Give the measured % degradation in MV4-11 cells, 1.0 µM, METTL3 of CNc1cc(N2CCC3(CC2)CN(c2cc(F)c(CN4CCC(C)(C(=O)NCCCCCCCCNc5cccc6c5C(=O)N(C5CCC(=O)NC5=O)C6=O)CC4)cc2F)CC(=O)N3)ncn1 (stereo not shown) .
Reply: 54

Ask: Look at this molecule and give its reported % degradation in MV4-11 cells, 1.0 µM, METTL3. CNc1cc(N2CCC3(CC2)CN(c2cc(F)c(CN4CCC(C)(C(=O)NCCCCCCCCCCNc5cccc6c5C(=O)N(C5CCC(=O)NC5=O)C6=O)CC4)cc2F)CC(=O)N3)ncn1 (stereo not shown)
Reply: 3

Ask: Field request: % degradation in MV4-11 cells, 1.0 µM, METTL3 | item: CNc1cc(N2CCC3(CC2)CN(c2cc(F)c(CN4CCC(C)(C(=O)NCCCCNc5cccc6c5C(=O)N(C5CCC(=O)NC5=O)C6=O)CC4)cc2F)CC(=O)N3)ncn1 (stereo not shown)
Reply: 52
